assay: water solubility of crystalline forms of tafamidis; assay type: physicochemical
Measured attribute: solubility (µg/mL)
One number for each entry, in µg/mL.

Lab note: measured solubility of O=C(O)c1ccc2nc(-c3cc(Cl)cc(Cl)c3)oc2c1 [Form Va] was 2.21
